These data points were gathered from patent US8071810B2.

Property: IC50; scope: individual compounds
# target under test: human C5a receptor (CD88) (Homo sapiens)
# Construct: expressed in transfected cells; host or cells: rat basophilic leukemia (RBL) cells, stably transfected
# assay notes: C5a induced enzyme (glucosaminidase) release assay in RBL cells expressing the human C5a receptor (Example 28)
# Format: cell-based
# condition label: inhibition of C5a induced enzyme release, RBL cells with human C5aR; read-out: Activity-range (antagonistic activity, IC50 enzyme release)

CCc1c(N)cc(Cl)c(CC)c1NC(=O)N(c1ccc(OC)cc1)[C@@H](C)c1ccc(Cl)cc1 [compound 92] : 60 to 200 nM
CCc1c(N)cc(Cl)c(CC)c1NC(=O)N(Cc1ccc(Cl)cc1)c1ccc(NC)c2ccccc12 [compound 139] : 200 to 5000 nM
CCc1c(N)cc(Cl)c(CC)c1NC(=O)N(c1ccc(C(C)C)cc1)C1CCc2cc(Cl)ccc21 (stereo not shown) [compound 88] : 60 to 200 nM
CCc1c(N)cc(Cl)c(CC)c1NC(=O)N(Cc1ccc(Cl)cn1)c1ccc(C(C)C)cc1 [compound 105] : 200 to 5000 nM
CCc1c(N)cc(Cl)c(CC)c1NC(=O)N(Cc1ccc(Cl)cc1)c1ccc(C(C)C)cc1 [compound 72] : 60 to 200 nM
CCc1ccc(N(Cc2ccc3c(c2)ncn3C)C(=O)Nc2c(CC)c(N)cc(Cl)c2CC)cc1 [compound 118] : 200 to 5000 nM

// IC50 lookup, key: CCc1c(Cl)cc(NCC(=O)N(C)C)c(CC)c1NC(=O)N(Cc1ccc(OC)cc1)c1ccc(C(C)C)cc1 [compound 37]
200 to 5000 nM

---

# target under test: human C5a receptor (CD88) (Homo sapiens, UniProt P21730)
# Construct: expressed in transfected cells; host or cells: rat basophilic leukemia (RBL) cells, stably transfected
# Sequence (P21730 whole entry): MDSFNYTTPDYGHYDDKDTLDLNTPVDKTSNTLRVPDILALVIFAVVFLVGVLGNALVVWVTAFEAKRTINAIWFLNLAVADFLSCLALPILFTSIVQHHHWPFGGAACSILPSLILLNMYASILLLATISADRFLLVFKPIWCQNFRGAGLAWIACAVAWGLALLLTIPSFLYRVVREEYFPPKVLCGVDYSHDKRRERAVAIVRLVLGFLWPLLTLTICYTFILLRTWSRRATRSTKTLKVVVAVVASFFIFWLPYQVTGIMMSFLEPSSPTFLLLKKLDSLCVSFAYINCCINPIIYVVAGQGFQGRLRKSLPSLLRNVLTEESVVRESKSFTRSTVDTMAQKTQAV
# assay notes: C5a induced enzyme (glucosaminidase) release assay in RBL cells expressing the human C5a receptor (Example 28)
# Format: cell-based
# condition label: inhibition of C5a induced enzyme release, RBL cells with human C5aR; read-out: Activity-range (antagonistic activity, IC50 enzyme release)
pIC50: −log10 of the molar value.
recorded endpoint: pIC50

// pIC50 lookup, key: CCc1ccc(NCC(=O)OC)c(CC)c1NC(=O)N(Cc1ccc(OC)cc1)c1ccc(C(C)C)cc1
5.30 to 6.70

Follow-up entry: COc1ccc(CN(C(=O)Nc2c(C(C)C)cccc2C(C)C)c2ccc(C(C)C)cc2)cc1
5.30 to 6.70

Follow-up entry: CCc1ccc(N)c(CC)c1NC(=O)N(Cc1ccc(C(F)(F)F)cc1)c1ccc(C(C)C)cc1
5.30 to 6.70

Follow-up entry: CCc1c(N)cc(Cl)c(CC)c1NC(=O)N(Cc1cccnc1)c1ccc(C(C)C)cc1
5.30 to 6.70

Follow-up entry: CCc1c(N)cc(Cl)c(CC)c1NC(=O)N(Cc1cnc(C)cn1)c1ccc(C(C)C)cc1
6.70 to 7.22

---

# target under test: human C5a receptor (CD88) (Homo sapiens, UniProt P21730)
# Construct: expressed in transfected cells; host or cells: rat basophilic leukemia (RBL) cells, stably transfected
# assay notes: C5a induced enzyme (glucosaminidase) release assay in RBL cells expressing the human C5a receptor (Example 28)
# Type: cell-based
# condition label: inhibition of C5a induced enzyme release, RBL cells with human C5aR; read-out: Activity-range (antagonistic activity, IC50 enzyme release)
pIC50: −log10 of the molar value.
Property: pIC50; scope: individual compounds

CCc1ccc(N(Cc2ccc(C)cc2)C(=O)Nc2c(CC)c(N)cc(Cl)c2CC)cc1 : 6.70 to 7.22

// pIC50 lookup, key: CCc1c(N)cc(Cl)c(CC)c1NC(=O)N(Cc1ccc(Cl)cc1)c1ccc(OC)c(OC)c1
5.30 to 6.70

Follow-up entry: CCc1c(N)cc(Cl)c(CC)c1NC(=O)N(Cc1ccc(OC)cc1)c1ccc2c(c1)CCC2
5.30 to 6.70

---

# target under test: human C5a receptor (CD88) (Homo sapiens)
# Construct: expressed in transfected cells; host or cells: rat basophilic leukemia (RBL) cells, stably transfected
# assay notes: Agonism in enzyme release assay without C5a stimulus (Example 32)
# Type: cell-based
# condition label: concentration applied 7.1 μM
recorded endpoint: Agonism (% of the maximum enzyme release induced by C5a) (%)
Provide the reading as a plain figure in %.

CCc1c(N)cc(Cl)c(CC)c1NC(=O)N(Cc1ccc(Cl)cc1)c1ccc(OC)c2cccnc12 : 0.00
CCc1c(N)cc(Cl)c(CC)c1NC(=O)N(c1ccc(OC)cc1F)[C@@H](C)c1ccc(Cl)cc1 : 0.00

// Agonism (% of the maximum enzyme release induced by C5a) lookup, key: CCc1ccc(N(Cc2ccc(C)nc2)C(=O)Nc2c(CC)c(N)cc(Cl)c2CC)cc1
0.00

Follow-up entry: CCc1ccc(N(C(=O)Nc2c(CC)c(N)cc(Cl)c2CC)C(C)c2ccc3c(c2)ncn3C)cc1 (stereo not drawn)
0.00

Follow-up entry: CCc1c(N)cc(Cl)c(CC)c1NC(=O)N(Cc1ccc(Cl)cc1)c1ccc(CC(F)(F)F)cc1
0.00

Follow-up entry: CCc1c(N)cc(Cl)c(CC)c1NC(=O)N(Cc1ccc(OC)cc1)c1ccc(C(C)C)cc1
0.12

---

# assay notes: AB permeability in TC-7 cell based assay (Example 34)
# Type: in vitro ADME
# condition label: human, Caco-2, TC-7 cells, apical pH 6.5 / basolateral pH 7.4, 120 min
recorded endpoint: Papp A→B at 120 min, 50 μM (×10⁻⁶ cm/s)
Provide the reading as a plain figure in ×10⁻⁶ cm/s.

The following compounds have reported results that may help.
CCc1ccc(N(Cc2ccc(C)nc2)C(=O)Nc2c(CC)c(N)cc(Cl)c2CC)cc1 : 22.3
CCc1c(N)cc(Cl)c(CC)c1NC(=O)N(Cc1ccc(Cl)cc1)c1ccc(OC)c2cccnc12 : 2.9
CCc1ccc(N(C(=O)Nc2c(CC)c(N)cc(Cl)c2CC)C(C)c2ccc3c(c2)ncn3C)cc1 (stereo not shown) : 3.5

// Papp A→B at 120 min, 50 μM lookup, key: CCc1c(N)cc(Cl)c(CC)c1NC(=O)N(c1ccc(OC)cc1F)[C@@H](C)c1ccc(Cl)cc1
1.1

---

Property: IC50; scope: individual compounds
# target under test: human C5a receptor (CD88) (Homo sapiens, UniProt P21730)
# Construct: expressed in transfected cells; host or cells: rat basophilic leukemia (RBL) cells, stably transfected
# assay notes: C5a induced enzyme (glucosaminidase) release assay in RBL cells expressing the human C5a receptor (Example 28)
# Format: cell-based
# condition label: inhibition of C5a induced enzyme release, RBL cells with human C5aR; read-out: Activity-range (antagonistic activity, IC50 enzyme release)

// IC50 lookup, key: CCc1c(N)cc(Cl)c(CC)c1NC(=O)N(c1ccc(OC)cc1CO)[C@@H](C)c1ccc(Cl)cc1
200 to 5000 nM

---

Property: pIC50; scope: individual compounds
# target under test: human C5a receptor (CD88) (Homo sapiens, UniProt P21730)
# Construct: expressed in transfected cells; host or cells: rat basophilic leukemia (RBL) cells, stably transfected
# assay notes: C5a induced enzyme (glucosaminidase) release assay in RBL cells expressing the human C5a receptor (Example 28)
# Type: cell-based
# condition label: inhibition of C5a induced enzyme release, RBL cells with human C5aR; read-out: Activity-range (antagonistic activity, IC50 enzyme release)
pIC50: −log10 of the molar value.

The following compounds have reported results that may help.
CCc1ccc(N)c(CC)c1NC(=O)N(c1ccc(C(C)C)cc1)[C@@H](C)c1ccc(C)cc1 : 6.70 to 7.22
CCc1c(N)cc(Cl)c(CC)c1NC(=O)N(c1ccc([S+](C)[O-])cc1)[C@@H](C)c1ccc(Cl)cc1 (stereo partly drawn) : 5.30 to 6.70
CCc1ccc(N)c(CC)c1NC(=O)N(Cc1ccc(OC)nc1)c1ccc(C(C)C)cc1 : 5.30 to 6.70
CCc1c(N)cc(Cl)c(CC)c1NC(=O)N(c1ccc(NC)cc1)[C@@H](C)c1ccccc1 : > 7.22
Cc1ccc([C@H](C)N(C(=O)Nc2c(C)c(N)cc(Cl)c2C)c2ccc(C(C)C)cc2)cc1 : 5.30 to 6.70

Form: Entry = CCc1c(Cl)cc(NCC(=O)OC)c(CC)c1NC(=O)N(Cc1ccc(OC)cc1)c1ccc(C(C)C)cc1 | System = human C5a receptor (CD88) (Homo sapiens, UniProt P21730) | pIC50 = ____
5.30 to 6.70

Follow-up entry: CCc1c(Cl)cc(N=O)c(CC)c1NC(=O)N(c1ccc(NC)cc1)[C@@H](C)c1ccc(Cl)cc1
> 7.22

Follow-up entry: COc1ccc(CN(C(=O)Nc2c(C(C)C)ccc(NC(C)=O)c2C(C)C)c2ccc(C(C)C)cc2)cc1
< 5.30

Follow-up entry: CCc1ccc(N(Cc2cnc(N(C)C)nc2)C(=O)Nc2c(CC)c(N)cc(Cl)c2CC)cc1
5.30 to 6.70
